These data points were gathered from the supplement of paper PMC6757056.

B1: library; a variant is named by its letters at N, in order (parent)
chain: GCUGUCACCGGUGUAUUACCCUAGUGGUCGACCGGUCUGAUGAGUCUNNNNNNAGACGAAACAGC

Variants of: B1
method-notes: normalized RNA/DNA level with ligand (relative to sTRSVctl = 100) (log10 (% of sTRSVctl)); ligand: hypoxanthine (xanthine aptamer); higher = less ribozyme self-cleavage, higher mRNA level
run-conditions: ligand concentration (+) RNA-Seq: 5 mM, HEK293T, reporter: mCherry (pCS4076), ligand present: yes
Measured normalized RNA/DNA level with ligand (log10), listed per entry.
Would you mind answering with just the numeric figure?

Examples from the recorded data:
[
  {
    "variant": "GAAUAA",
    "number": 1.91
  },
  {
    "variant": "ACCCGC",
    "number": 1.91
  },
  {
    "variant": "AAGUGC",
    "number": 1.88
  }
]

Inquiry: So what's the measured normalized RNA/DNA level with ligand (log10) for this one? CUCGCU
Reply text: 1.95
